The origin of these recorded values is ChEMBL document CHEMBL1153760.

system_under_test: Estrogen receptor (Homo sapiens)
Sequence (P03372 whole entry): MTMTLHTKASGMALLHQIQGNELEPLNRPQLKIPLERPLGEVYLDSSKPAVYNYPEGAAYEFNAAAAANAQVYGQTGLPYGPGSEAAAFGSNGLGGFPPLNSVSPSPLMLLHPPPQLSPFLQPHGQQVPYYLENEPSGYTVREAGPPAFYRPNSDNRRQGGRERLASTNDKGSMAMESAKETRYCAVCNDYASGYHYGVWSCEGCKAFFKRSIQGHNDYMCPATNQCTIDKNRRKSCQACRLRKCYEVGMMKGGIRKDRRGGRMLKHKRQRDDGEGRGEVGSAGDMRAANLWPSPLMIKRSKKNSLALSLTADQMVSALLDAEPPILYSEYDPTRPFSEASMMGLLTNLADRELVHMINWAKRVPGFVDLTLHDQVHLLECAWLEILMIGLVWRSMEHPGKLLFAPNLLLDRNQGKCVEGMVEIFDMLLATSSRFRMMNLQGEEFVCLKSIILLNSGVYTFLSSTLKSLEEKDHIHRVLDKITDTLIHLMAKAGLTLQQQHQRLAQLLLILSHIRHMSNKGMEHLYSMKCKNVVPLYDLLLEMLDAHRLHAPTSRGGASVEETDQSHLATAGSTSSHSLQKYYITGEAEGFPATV
assay: Displacement of radiolabeled estrogen from estrogen receptor alpha by scintillation counting
Can you tell me IC50 for the items I'm about to list?
Note: unit nM is implicit; provide only the numeric part.

Case Oc1ccc2c(c1)O[C@@H](c1ccc(OCCN3CCOCC3)cc1)C1=C2CCOc2cc(O)ccc21 , Estrogen receptor (Homo sapiens), IC50 recorded as 10

Param item: O=C(O)CCOc1ccc([C@@H]2Oc3cc(O)ccc3C3=C2c2ccc(O)cc2OCC3)cc1 ; param system: Estrogen receptor (Homo sapiens); output IC50: 580

Hey, Estrogen receptor (Homo sapiens) data for CCN(CC)CCOc1ccc([C@@H]2Oc3cc(F)ccc3C3=C2c2ccc(O)cc2OCC3)cc1 : IC50 came out at 7

Reported Estrogen receptor (Homo sapiens) IC50 for item Oc1ccc2c(c1)OCCC1=C2[C@@H](c2ccc(OCCN3CCCCCC3)cc2)Oc2ccccc21 was 11

Item: Oc1ccc2c(c1)O[C@H](c1ccc(OCCN3CCSCC3)cc1)C1=C2CCOc2cc(O)ccc21 | System: Estrogen receptor (Homo sapiens) | IC50: 1.2

Bench note, Estrogen receptor (Homo sapiens): CC(C)N(CCOc1ccc([C@@H]2Oc3cc(O)ccc3C3=C2c2ccc(O)cc2OCC3)cc1)C(C)C , IC50 reads 5.6

// IC50 (Estrogen receptor (Homo sapiens)) for Oc1ccc2c(c1)O[C@@H](c1ccc(OCCN3CCSCC3)cc1)C1=C2CCOc2cc(O)ccc21 = 111

# value of IC50, Estrogen receptor (Homo sapiens), item COc1ccc2c(c1)OCCC1=C2[C@@H](c2ccc(OCCN3CCCCC3)cc2)Oc2cc(O)ccc21 = 5.8

Estrogen receptor (Homo sapiens) assay, compound O=C(O)CCOc1ccc([C@H]2Oc3cc(O)ccc3C3=C2c2ccc(O)cc2OCC3)cc1 , recorded IC50 = 120

Estrogen receptor (Homo sapiens) IC50 of CN1CCN(CCOc2ccc([C@H]3Oc4cc(O)ccc4C4=C3c3ccc(O)cc3OCC4)cc2)CC1 is 8.7
